This section presents compounds with their documented pIC50 values.
Biological target: Vascular endothelial growth factor receptor 2 (Homo sapiens, UniProt P35968)
Sequence (P35968 whole entry): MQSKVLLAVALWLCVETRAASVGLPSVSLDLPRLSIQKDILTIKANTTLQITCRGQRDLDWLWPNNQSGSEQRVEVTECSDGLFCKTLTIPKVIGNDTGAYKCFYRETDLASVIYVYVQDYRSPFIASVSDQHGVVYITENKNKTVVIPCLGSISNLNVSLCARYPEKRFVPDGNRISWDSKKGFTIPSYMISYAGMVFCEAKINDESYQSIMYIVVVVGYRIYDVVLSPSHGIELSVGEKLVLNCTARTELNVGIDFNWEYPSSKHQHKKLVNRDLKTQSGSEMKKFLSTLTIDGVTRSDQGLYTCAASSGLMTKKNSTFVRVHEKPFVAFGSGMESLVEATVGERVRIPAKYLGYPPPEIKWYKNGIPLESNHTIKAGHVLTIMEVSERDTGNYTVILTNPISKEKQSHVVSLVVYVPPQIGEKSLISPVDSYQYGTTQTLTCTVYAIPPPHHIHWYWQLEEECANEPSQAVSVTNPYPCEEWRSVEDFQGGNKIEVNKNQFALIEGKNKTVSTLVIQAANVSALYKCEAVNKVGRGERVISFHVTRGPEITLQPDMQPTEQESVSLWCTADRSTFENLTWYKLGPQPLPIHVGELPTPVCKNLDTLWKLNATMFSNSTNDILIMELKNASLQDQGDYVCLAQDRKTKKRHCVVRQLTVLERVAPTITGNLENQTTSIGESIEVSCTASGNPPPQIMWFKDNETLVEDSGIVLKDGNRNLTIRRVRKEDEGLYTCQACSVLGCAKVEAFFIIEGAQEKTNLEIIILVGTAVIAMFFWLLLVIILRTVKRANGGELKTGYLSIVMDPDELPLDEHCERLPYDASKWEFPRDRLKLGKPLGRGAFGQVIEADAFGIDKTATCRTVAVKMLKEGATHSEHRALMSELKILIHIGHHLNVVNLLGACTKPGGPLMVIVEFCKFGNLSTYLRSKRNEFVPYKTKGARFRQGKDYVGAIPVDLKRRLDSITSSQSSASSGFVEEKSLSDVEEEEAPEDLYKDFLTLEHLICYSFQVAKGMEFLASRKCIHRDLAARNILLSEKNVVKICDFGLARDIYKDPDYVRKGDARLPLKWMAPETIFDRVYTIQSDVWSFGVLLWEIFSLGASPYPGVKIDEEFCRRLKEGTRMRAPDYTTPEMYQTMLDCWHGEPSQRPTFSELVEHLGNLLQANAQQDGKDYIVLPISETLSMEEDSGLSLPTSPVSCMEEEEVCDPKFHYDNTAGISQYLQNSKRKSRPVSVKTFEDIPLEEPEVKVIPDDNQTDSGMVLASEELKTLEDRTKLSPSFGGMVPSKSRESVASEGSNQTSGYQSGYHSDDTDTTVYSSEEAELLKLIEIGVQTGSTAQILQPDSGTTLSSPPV
pIC50: −log10 of the molar value.

{"columns": ["lineNotation", "pIC50"],
 "data": [
  ["CC(C)OC(=O)N1CCn2cc(C3=C(c4cnc5ccccn45)C(=O)NC3=O)c3cccc(c32)C1", "< 4.70"],
  ["O=C1NC(=O)C(c2cnc3ccccn23)=C1c1cn2c3c(cccc13)CN(C(=O)N1CCCCC1)CC2", "< 4.70"]
]}

* * *

Target: UniProtKB P37173
Sequence (P37173 whole entry): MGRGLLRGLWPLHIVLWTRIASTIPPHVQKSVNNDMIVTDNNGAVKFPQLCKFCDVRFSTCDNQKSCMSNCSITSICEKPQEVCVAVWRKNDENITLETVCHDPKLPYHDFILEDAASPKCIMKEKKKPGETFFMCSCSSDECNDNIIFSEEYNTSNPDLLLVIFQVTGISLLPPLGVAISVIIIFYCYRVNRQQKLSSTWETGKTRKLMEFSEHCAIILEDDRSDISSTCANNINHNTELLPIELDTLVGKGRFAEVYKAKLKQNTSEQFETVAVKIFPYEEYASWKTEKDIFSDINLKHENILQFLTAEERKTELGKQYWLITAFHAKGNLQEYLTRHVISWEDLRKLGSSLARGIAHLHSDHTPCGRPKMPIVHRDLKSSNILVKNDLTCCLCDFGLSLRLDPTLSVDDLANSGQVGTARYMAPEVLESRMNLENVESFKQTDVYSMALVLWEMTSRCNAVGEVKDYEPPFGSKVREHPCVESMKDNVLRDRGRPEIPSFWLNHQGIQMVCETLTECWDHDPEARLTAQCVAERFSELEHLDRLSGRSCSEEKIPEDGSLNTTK

{"columns": ["lineNotation", "IC50"],
 "data": [
  ["CC(C)OC(=O)N1CCn2cc(C3=C(c4cnc5ccccn45)C(=O)NC3=O)c3cccc(c32)C1", "> 20 µM"],
  ["O=C1NC(=O)C(c2cnc3ccccn23)=C1c1cn2c3c(cccc13)CN(C(=O)N1CCCCC1)CC2", "3.1 µM"],
  ["CN(C)C(=O)N1CCn2cc(C3=C(c4cnc5ccccn45)C(=O)NC3=O)c3cccc(c32)C1", "> 20 µM"]
]}

* * *

Biological target: Glycogen synthase kinase-3 beta (Homo sapiens, UniProt P49841)
Sequence (P49841 whole entry): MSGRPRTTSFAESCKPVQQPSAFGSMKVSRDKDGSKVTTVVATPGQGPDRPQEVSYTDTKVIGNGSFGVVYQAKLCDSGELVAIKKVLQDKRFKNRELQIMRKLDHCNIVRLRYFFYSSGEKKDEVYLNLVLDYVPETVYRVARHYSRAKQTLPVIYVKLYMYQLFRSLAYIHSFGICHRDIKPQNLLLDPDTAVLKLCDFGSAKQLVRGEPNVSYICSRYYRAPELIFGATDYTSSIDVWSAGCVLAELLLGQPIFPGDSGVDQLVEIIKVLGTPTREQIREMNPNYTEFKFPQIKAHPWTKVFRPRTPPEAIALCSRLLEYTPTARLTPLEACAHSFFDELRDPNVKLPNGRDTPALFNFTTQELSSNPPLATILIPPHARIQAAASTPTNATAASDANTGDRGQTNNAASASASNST
This section presents molecules with their documented IC50 values.

{"columns": ["lineNotation", "IC50"],
 "data": [
  ["CC(C)OC(=O)N1CCn2cc(C3=C(c4cnc5ccccn45)C(=O)NC3=O)c3cccc(c32)C1", "1.3 nM"],
  ["O=C1NC(=O)C(c2cnc3ccccn23)=C1c1cn2c3c(cccc13)CN(C(=O)N1CCOCC1)CC2", "1.3 nM"],
  ["O=C1NC(=O)C(c2cnc3ccccn23)=C1c1cn2c3c(cc(F)cc13)CN(C(=O)N1CCCCC1)CC2", "1.1 nM"],
  ["O=C1NC(=O)C(c2cnc3ccccn23)=C1c1cn2c3c(cccc13)CN(C(=O)N1CCCCC1)CC2", "2 nM"],
  ["CN(C)C(=O)N1CCn2cc(C3=C(c4cnc5ccccn45)C(=O)NC3=O)c3cccc(c32)C1", "1.6 nM"]
]}

* * *

# pIC50 per entry for RAC-alpha serine/threonine-protein kinase (Homo sapiens, UniProt P31749)
pIC50: −log10 of the molar value.

{"columns": ["lineNotation", "targetOrTestSystem", "pIC50"],
 "data": [
  ["CC(C)OC(=O)N1CCn2cc(C3=C(c4cnc5ccccn45)C(=O)NC3=O)c3cccc(c32)C1", "RAC-alpha serine/threonine-protein kinase (Homo sapiens, UniProt P31749)", "< 4.70"],
  ["O=C1NC(=O)C(c2cnc3ccccn23)=C1c1cn2c3c(cccc13)CN(C(=O)N1CCOCC1)CC2", "RAC-alpha serine/threonine-protein kinase (Homo sapiens, UniProt P31749)", "< 4.70"]
]}

* * *

Assay: Half life in in vivo, hours
Assay type: ADME, organism-based
Settings: rat
assayEndpoint: half-life

{"columns": ["lineNotation", "observedValue"],
 "data": [
  ["O=C1NC(=O)C(c2cnc3ccccn23)=C1c1cn2c3c(cc(F)cc13)CN(C(=O)N1CCCCC1)CC2", "1.1 h"]
]}

* * *

Experiment: Compound was tested for in vivo clearance
Type: ADME, organism-based
Conditions: rat
assayEndpoint: clearance (mL/min/kg)

{"columns": ["lineNotation", "observedValue"],
 "data": [
  ["O=C1NC(=O)C(c2cnc3ccccn23)=C1c1cn2c3c(cc(F)cc13)CN(C(=O)N1CCCCC1)CC2", 12]
]}
